test system: Alpha-2 adrenergic receptor (Rattus norvegicus); test: Compound was evaluated for its ability to antagonise the inhibitory activity of clonidine, relative to idazoxan at prejunctional alpha-2 adrenergic receptor in rat vas deferens.
Attribute: Antagonist potency
Please give only the number in your answer, with no unit.

{"compound": "CC1(C2=NCCN2)COc2ccccc2O1 (single isomer, unassigned; (-))", "tgt": "Alpha-2 adrenergic receptor (Rattus norvegicus)", "Antagonist potency": 0.005}

Item C=C(C)C1(C2=NCCN2)COc2ccccc2O1 (stereo in doubt; 12) has what recorded Antagonist potency?
0.8

Next up: C=C(C)C1(C2=NCCN2)COc2ccccc2O1 (stereo in doubt; 10)
0.4

# iterate: CC1(C2=NCCN2)COc2ccccc2O1 (single isomer, unassigned; (+))
1.3

Then what about the compound C=C(C)C1(C2=NCCN2)COc2ccccc2O1 (single isomer, unassigned; (+)) ?
0.0003

====

target: Adrenergic receptor alpha-1 (Rattus norvegicus, UniProt P15823+P23944+P43140); assay: Displacement of [3H]prazosin from alpha-1 adrenergic receptor from rat brain cerebral cortex; assay type: tissue-based
// reported log10(Ki) for each item listed
In our notation, the value equals log10 of Ki in µM.

{"compound": "COC1(C2=NCCN2)COc2ccccc2O1 (stereo in doubt; 4)", "tgt": "Adrenergic receptor alpha-1 (Rattus norvegicus, UniProt P15823+P23944+P43140)", "log10(Ki)": -1.18}
{"compound": "CC1(C2=NCCN2)COc2ccccc2O1 (single isomer, unassigned; (-))", "tgt": "Adrenergic receptor alpha-1 (Rattus norvegicus, UniProt P15823+P23944+P43140)", "log10(Ki)": 1.12}
{"compound": "C=C(C)C1(C2=NCCN2)COc2ccccc2O1 (stereo in doubt; 10)", "tgt": "Adrenergic receptor alpha-1 (Rattus norvegicus, UniProt P15823+P23944+P43140)", "log10(Ki)": 0.25}

Form field: reported log10(Ki) of C=C(C)C1(C2=NCCN2)COc2ccccc2O1 (single isomer, unassigned; (+))
1.67

Please answer likewise for COC1(C2=NCCN2)COc2ccccc2O1 (single isomer, unassigned; (-))
0.83

Now give it for CC1(C2=NCCN2)COc2ccccc2O1 (single isomer, unassigned; (+)) too.
-0.55

Likewise for COC1(C2=NCCN2)COc2ccccc2O1 (single isomer, unassigned; (+)) ?
-1.57

How about C=C(C)C1(C2=NCCN2)COc2ccccc2O1 (stereo in doubt; 12) ?
0.17

Next up: CC1(C2=NCCN2)COc2ccccc2O1 (stereo in doubt; 7)
-0.35

====

molecular target: Adrenergic receptor alpha-2 (Rattus norvegicus, UniProt P22086+P19328+P22909); test: Displacement of [3H]idazoxan from alpha-2 adrenergic receptor from rat brain cerebral cortex.; type: tissue-based
parameterMeasured: Ki

The cases that follow already have their Ki on record.
{"compound": "COC1(C2=NCCN2)COc2ccccc2O1 (single isomer, unassigned; (-))", "Ki": "256 nM"}
{"compound": "COC1(C2=NCCN2)COc2ccccc2O1 (stereo in doubt; 4)", "Ki": "0.8 nM"}
{"compound": "C=C(C)C1(C2=NCCN2)COc2ccccc2O1 (single isomer, unassigned; (+))", "Ki": "8734 nM"}

Hi! What's the reported Ki for CC1(C2=NCCN2)COc2ccccc2O1 (single isomer, unassigned; (-)) on Adrenergic receptor alpha-2 (Rattus norvegicus, UniProt P22086+P19328+P22909)?
487 nM

====

Items are presented alongside their recorded log10(Ki).
molecular target: Adrenergic receptor alpha-2 (Rattus norvegicus, UniProt P22086+P19328+P22909); test: Displacement of [3H]idazoxan from alpha-2 adrenergic receptor from rat brain cerebral cortex.; format: tissue-based
Values below are the log10 of the recorded Ki, with nM as the unit.

{"compound": "CC1(C2=NCCN2)COc2ccccc2O1 (single isomer, unassigned; (+))", "log10(Ki)": 0.38}
{"compound": "C=C(C)C1(C2=NCCN2)COc2ccccc2O1 (stereo in doubt; 12)", "log10(Ki)": 0.90}
{"compound": "COC1(C2=NCCN2)COc2ccccc2O1 (single isomer, unassigned; (+))", "log10(Ki)": -0.44}
{"compound": "C=C(C)C1(C2=NCCN2)COc2ccccc2O1 (stereo in doubt; 10)", "log10(Ki)": 1.21}

Now for the compound whose log10(Ki) we want.
# lookup: log10(Ki) of CC1(C2=NCCN2)COc2ccccc2O1 (stereo in doubt; 7)
0.64

====

tested on: Alpha-1 adrenergic receptor (Rattus norvegicus); assay: Compound was evaluated for its ability to antagonise the inhibitory activity of phenylephrine, relative to idazoxan at postjunctional alpha-1 adrenergic receptor in rat anococcygeus.
parameterMeasured: Antagonist potency
Enter the number alone.

Known results for compounds:
{"compound": "CC1(C2=NCCN2)COc2ccccc2O1 (stereo in doubt; 7)", "Antagonist potency": 0.28}
{"compound": "C=C(C)C1(C2=NCCN2)COc2ccccc2O1 (stereo in doubt; 12)", "Antagonist potency": 0.6}

// lookup Antagonist potency for C=C(C)C1(C2=NCCN2)COc2ccccc2O1 (stereo in doubt; 10)
0.07

Lookup C=C(C)C1(C2=NCCN2)COc2ccccc2O1 (single isomer, unassigned; (+))
0.03

Then CC1(C2=NCCN2)COc2ccccc2O1 (single isomer, unassigned; (+)) ?
0.09
